Origin of values: patent US20210230570

# SUBJECT_OF_TEST: plasma purified human antithrombin III (AT-III) in complex with unfractionated heparin (AT-III/UFH)
Overview of recorded K0.5 for various proteins

These solved cases illustrate the format of a correct answer.
{"columns": ["PROTEIN", "K0.5"],
 "data": [
  ["FIXa A103N/N105S/Y155F/R318Y/R338E/R403E/E410N (mature FIX numbering) (protein) chain 1: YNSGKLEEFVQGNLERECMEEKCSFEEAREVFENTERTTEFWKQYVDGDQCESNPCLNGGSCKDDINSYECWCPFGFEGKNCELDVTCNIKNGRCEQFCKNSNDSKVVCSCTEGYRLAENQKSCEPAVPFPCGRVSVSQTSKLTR chain 2: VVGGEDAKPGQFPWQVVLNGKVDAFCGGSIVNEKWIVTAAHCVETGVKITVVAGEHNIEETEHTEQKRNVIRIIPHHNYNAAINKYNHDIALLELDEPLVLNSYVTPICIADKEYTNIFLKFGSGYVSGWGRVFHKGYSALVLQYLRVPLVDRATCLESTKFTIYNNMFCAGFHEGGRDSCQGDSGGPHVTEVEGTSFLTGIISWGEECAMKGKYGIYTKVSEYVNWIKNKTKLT", "> 10 µM"],
  ["FIXa D104N/K106S/Y155F/R318Y/R338E/R403E/E410N (mature FIX numbering) (protein) chain 1: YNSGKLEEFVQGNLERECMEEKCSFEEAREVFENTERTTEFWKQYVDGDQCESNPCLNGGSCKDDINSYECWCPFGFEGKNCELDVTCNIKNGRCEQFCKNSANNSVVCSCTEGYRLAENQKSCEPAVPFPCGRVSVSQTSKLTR chain 2: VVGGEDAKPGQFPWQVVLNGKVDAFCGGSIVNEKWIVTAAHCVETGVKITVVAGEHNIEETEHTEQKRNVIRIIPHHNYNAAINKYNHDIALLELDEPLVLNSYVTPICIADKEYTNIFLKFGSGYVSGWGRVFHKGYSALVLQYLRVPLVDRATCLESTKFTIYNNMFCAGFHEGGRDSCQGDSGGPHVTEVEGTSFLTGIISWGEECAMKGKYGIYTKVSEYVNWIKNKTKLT", "> 10 µM"],
  ["FIXa D203N/F205T/R318Y/E410N (mature FIX numbering) (protein) chain 1: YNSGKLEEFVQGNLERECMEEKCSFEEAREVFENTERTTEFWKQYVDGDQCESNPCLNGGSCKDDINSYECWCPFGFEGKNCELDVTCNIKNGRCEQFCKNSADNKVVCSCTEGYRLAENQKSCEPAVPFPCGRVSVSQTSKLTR chain 2: VVGGEDAKPGQFPWQVVLNGKVNATCGGSIVNEKWIVTAAHCVETGVKITVVAGEHNIEETEHTEQKRNVIRIIPHHNYNAAINKYNHDIALLELDEPLVLNSYVTPICIADKEYTNIFLKFGSGYVSGWGRVFHKGYSALVLQYLRVPLVDRATCLRSTKFTIYNNMFCAGFHEGGRDSCQGDSGGPHVTEVEGTSFLTGIISWGEECAMKGKYGIYTKVSRYVNWIKNKTKLT", "1.28 µM"]
]}

Next protein, K0.5 to be filled in.
Determine from records and report K0.5 for FIXa A103N/N105S/R318Y/R338E/R403E/E410N (mature FIX numbering) (protein) chain 1: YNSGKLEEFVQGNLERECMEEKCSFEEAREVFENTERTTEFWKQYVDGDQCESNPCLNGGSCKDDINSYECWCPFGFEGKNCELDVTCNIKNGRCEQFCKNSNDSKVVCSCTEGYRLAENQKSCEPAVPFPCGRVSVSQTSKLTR chain 2: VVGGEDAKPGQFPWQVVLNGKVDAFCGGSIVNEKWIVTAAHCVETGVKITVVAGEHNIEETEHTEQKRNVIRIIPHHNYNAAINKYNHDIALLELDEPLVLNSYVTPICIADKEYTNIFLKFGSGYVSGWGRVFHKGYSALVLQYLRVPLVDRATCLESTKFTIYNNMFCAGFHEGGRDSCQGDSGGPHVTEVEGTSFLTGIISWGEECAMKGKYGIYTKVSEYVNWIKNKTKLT 9.19 µM
